# Tested on: HL-60(TB) leukemia
# PROCEDURE TEXT: NCI tumour cell line growth inhibition, 48 h

>  <MOLECULE>
C=CN(C)S(C)(=O)=O

>  <TESTED ON>
HL-60(TB) leukemia

>  <GI50>
> 100 µM

$$$$
>  <MOLECULE>
OCC1OC(n2cnc3c(Cl)nc(Cl)cc32)C(O)C1O (stereo unspecified)

>  <TESTED ON>
HL-60(TB) leukemia

>  <GI50>
> 100 µM

$$$$
>  <MOLECULE>
O=C(NCc1ccco1)c1ccc(NC2=C(Cl)C(=O)N(Cc3ccccc3)C2=O)cc1

>  <TESTED ON>
HL-60(TB) leukemia

>  <GI50>
17.4 µM

$$$$
>  <MOLECULE>
O=C(Nc1nc2ccc(F)cc2s1)c1cccnc1Nc1ccc(Cl)cc1

>  <TESTED ON>
HL-60(TB) leukemia

>  <GI50>
1.6 µM

$$$$
>  <MOLECULE>
Nc1c(C(=O)c2ccc(CCCN3CCOCC3)cc2)cnn1-c1ccc(F)cc1

>  <TESTED ON>
HL-60(TB) leukemia

>  <GI50>
> 25 µM

$$$$
>  <MOLECULE>
O=C(NCc1ccncc1)C12CC3CC(C1)CC(c1ccc(Cl)cc1)(C3)C2

>  <TESTED ON>
HL-60(TB) leukemia

>  <GI50>
5.58 µM

$$$$

// provenance: PubChem BioAssay (NCI)
